target-entity: Kappa-type opioid receptor (Homo sapiens)
Sequence (P41145 whole entry): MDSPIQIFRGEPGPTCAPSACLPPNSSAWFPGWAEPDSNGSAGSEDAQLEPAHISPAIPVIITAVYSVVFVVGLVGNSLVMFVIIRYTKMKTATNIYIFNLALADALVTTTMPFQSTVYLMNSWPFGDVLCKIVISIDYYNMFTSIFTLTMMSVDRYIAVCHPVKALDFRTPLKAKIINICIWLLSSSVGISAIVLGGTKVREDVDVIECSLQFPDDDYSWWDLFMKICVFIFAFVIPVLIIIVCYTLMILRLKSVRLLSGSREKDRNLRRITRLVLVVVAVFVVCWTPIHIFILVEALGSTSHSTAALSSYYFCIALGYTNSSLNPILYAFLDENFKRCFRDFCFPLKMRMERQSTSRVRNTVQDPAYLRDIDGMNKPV
test-description: Antagonist activity against HA-tagged human recombinant kappa opioid receptor expressed in CHO cell membranes incubated for 1 hr by [35S]GTPgammaS binding assay
Assay type: functional
experimental-parameters: read-out: IC50
pIC50: −log10 of the molar value.
result-type: pIC50

Past entries and their recorded results:
Cc1ccc(S(=O)(=O)NCc2ccc(C(=O)NCC3CCCN(Cc4ccccc4)C3)cc2)cc1 (stereo not drawn) :: < 4.74
Cc1ccc(S(=O)(=O)NCc2ccc(C(=O)NC3CCN(Cc4ccccc4)C3)cc2)cc1 (stereo not drawn) :: < 4.74

For the next question, use this compound.
Req: Input Cc1ccc(S(=O)(=O)NCc2ccc(C(=O)NCCN3Cc4ccccc4C3)cc2)cc1 , output reported pIC50.
Resp: < 4.74

###

target-entity: Kappa-type opioid receptor (Homo sapiens)
test-description: Antagonist activity against HA-tagged human recombinant kappa opioid receptor expressed in CHO cells assessed as inhibition of U69,593-induced ERK phosphorylation pre-incubated with compound before U69,593 stimulation for 10 mins relative to control
Format: cell-based
Design: concentration or dose not given beside the values
So I've got a bunch of molecules here, and I need their inhibition values.

Cc1ccc(S(=O)(=O)N2CCc3cc(C(=O)NCCN(Cc4ccc(F)cc4)C(C)(C)C)ccc3C2)cc1 :: > 86%

Please give inhibition for each item listed below.
1. Cc1cc(C)c(S(=O)(=O)N2CCc3cc(C(=O)NCCN(Cc4ccc(F)cc4)C(C)(C)C)ccc3C2)c(C)c1
2. Cc1ccc(S(=O)(=O)N2CCc3cc(C(=O)NCCN(Cc4ccc(Br)cc4)C(C)(C)C)ccc3C2)cc1

Resp:
1. > 86%
2. > 86%

###

target-entity: Kappa-type opioid receptor (Rattus norvegicus, UniProt P34975)
Sequence (P34975 whole entry): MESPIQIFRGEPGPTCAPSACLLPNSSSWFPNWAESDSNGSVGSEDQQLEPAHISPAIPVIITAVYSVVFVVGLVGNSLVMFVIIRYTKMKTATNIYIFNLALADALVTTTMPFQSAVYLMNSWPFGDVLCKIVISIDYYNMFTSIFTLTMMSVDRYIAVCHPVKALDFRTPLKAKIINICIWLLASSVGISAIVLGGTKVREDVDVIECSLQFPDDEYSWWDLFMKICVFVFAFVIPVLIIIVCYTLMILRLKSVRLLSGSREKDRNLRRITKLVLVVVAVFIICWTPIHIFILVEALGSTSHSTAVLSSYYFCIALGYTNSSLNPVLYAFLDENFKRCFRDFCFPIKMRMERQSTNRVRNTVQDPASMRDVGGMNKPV
Would you mind telling me the reported Ki of each entry?
Quick note: number first, unit second.

For orientation, consider the following solved cases.
Cc1ccc(S(=O)(=O)N2CCc3cc(C(=O)NCCN(Cc4ccc(Cl)cc4)C(C)(C)C)ccc3C2)cc1 :: 53 nM
Cc1ccc(S(=O)(=O)N2CCc3cc(C(=O)NCCN(Cc4ccc(Br)cc4)C(C)C)ccc3C2)cc1 :: 73 nM

Pending molecule:
Req: Write Ki of Cc1ccc(S(=O)(=O)NCc2ccc(C(=O)NCCN(Cc3ccccc3)C(C)C)cc2)cc1 ; system used: Kappa-type opioid receptor (Rattus norvegicus, UniProt P34975)
Resp: 50 nM

###

target-entity: Delta-type opioid receptor (Homo sapiens, UniProt P41143)
Sequence (P41143 whole entry): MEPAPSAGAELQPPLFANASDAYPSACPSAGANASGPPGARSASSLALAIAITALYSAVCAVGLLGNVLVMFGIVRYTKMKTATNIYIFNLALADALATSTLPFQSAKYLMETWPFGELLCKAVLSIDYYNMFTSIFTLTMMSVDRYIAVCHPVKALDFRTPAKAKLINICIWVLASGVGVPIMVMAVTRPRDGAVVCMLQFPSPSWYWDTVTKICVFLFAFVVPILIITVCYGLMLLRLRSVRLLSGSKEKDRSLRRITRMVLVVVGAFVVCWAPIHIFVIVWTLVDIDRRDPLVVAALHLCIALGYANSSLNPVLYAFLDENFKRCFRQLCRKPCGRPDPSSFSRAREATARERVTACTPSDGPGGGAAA
test-description: Binding affinity to delta opioid receptor (unknown origin)
So I've got a bunch of molecules here, and I need their Ki values.
Numbers only, in µM.

Cc1ccc(S(=O)(=O)N2CCc3cc(C(=O)NCCN(Cc4ccccc4)C(C)(C)C)ccc3C2)cc1 :: 2.33

Give one value of Ki per listed molecule.
1. Cc1ccc(S(=O)(=O)N2CCc3cc(C(=O)NCCN(Cc4ccc(Br)cc4)C(C)C)ccc3C2)cc1
2. Cc1ccc(S(=O)(=O)NCc2ccc(C(=O)NCCN(Cc3ccccc3)C(C)C)cc2)cc1

Resp:
[5.19, 1.09]

###

target-entity: Mu-type opioid receptor (Homo sapiens, UniProt P35372)
Sequence (P35372 whole entry): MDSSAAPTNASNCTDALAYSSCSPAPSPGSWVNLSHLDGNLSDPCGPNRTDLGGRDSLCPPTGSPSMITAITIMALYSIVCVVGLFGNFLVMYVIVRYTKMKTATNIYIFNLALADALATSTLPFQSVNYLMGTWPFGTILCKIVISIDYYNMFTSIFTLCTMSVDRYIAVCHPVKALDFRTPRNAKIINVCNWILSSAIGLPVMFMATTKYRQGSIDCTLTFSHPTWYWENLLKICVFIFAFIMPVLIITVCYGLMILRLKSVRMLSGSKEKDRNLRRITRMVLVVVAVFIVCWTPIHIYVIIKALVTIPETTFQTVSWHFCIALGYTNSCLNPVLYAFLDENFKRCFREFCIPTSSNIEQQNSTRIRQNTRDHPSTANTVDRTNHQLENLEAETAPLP
result-type: IC50

Req: Retrieve IC50 measured for Cc1ccc(S(=O)(=O)NCc2ccc(C(=O)NCCN(Cc3ccccc3)C(C)C)cc2)cc1 and print it.
Resp: > 24 µM

###

# Mu-type opioid receptor (Homo sapiens, UniProt P35372): pKi values follow
One number for each entry, as −log10 of the molar value.

Cc1ccc(S(=O)(=O)NCc2ccc(C(=O)NCCN(Cc3ccccc3)C(C)C)cc2)cc1 :: 6.51

Req: Report pKi under test system Mu-type opioid receptor (Homo sapiens, UniProt P35372) for Cc1ccc(S(=O)(=O)N2CCc3cc(C(=O)NCCN(Cc4ccc(Br)cc4)C(C)C)ccc3C2)cc1 .
Resp: 5.09
